Test system: UACC-62 melanoma
Experiment: NCI tumour cell line growth inhibition, 48 h
QUANTITY_NAME: TGI

CCCc1nc(N)nc(C(=O)Nc2cccc(C(F)(F)F)c2)c1CC = > 100 µM

Below is a list of molecules. For each, state its recorded TGI.
1. CCOC(=O)Cc1csc(NC(=O)COC(=O)c2ccc(N)cc2)n1
2. CCOC(=O)c1ccc2c(c1)[n+](=O)c(C(=O)C1CCCS1)c(C(F)(F)F)n2[O-] (stereo not given)
3. CC1OC(OC2C(O)C(OCCc3ccc(O)c(O)c3)OC(CO)C2OC(=O)/C=C/c2ccc(O)c(O)c2)C(O)C(O)C1OC1OCC(O)(CO)C1O (stereo not given)
4. O=C1c2ccccc2C(=O)c2c1c(=O)c(=O)c1ccccc1c(=O)n2Cc1ccccc1

A.
> 100 µM
2.45 µM
> 100 µM
> 100 µM
